Please provide measured shrunken log2 fold change for the entries that follow.
System: Escherichia coli TOP10;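 also: peptides expressed intracellularly from a pBAD plasmid library in pooled LB shake-flask culture, induced with 0.3% L-arabinose, DNA abundance read by NGS, three biological replicates, DESeq2 with apeglm shrinkage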
Experiment: shrunken log2 fold change of peptide-encoding DNA abundance (4.5 h post-induction vs induction); higher = less antimicrobial activity (less host growth inhibition)
Details: time post-induction: 4.5 h; library: site-saturation at positions 5, 18, 19, 20
The answer should be a number; do not append a unit.

Prompt line: Missing value: shrunken log2 fold change, Escherichia coli TOP10, entry RRIRMRPPRLPRPRPRPYCGPRP . Fill in?
Response line: -0.0255

Prompt line: Missing value: shrunken log2 fold change, Escherichia coli TOP10, entry RRIRERPPRLPRPRPRPMLGPRP . Fill in?
Response line: 0.00848

Prompt line: Missing value: shrunken log2 fold change, Escherichia coli TOP10, entry RRIRMRPPRLPRPRPRPMLHPRP . Fill in?
Response line: 0.0756

Prompt line: Missing value: shrunken log2 fold change, Escherichia coli TOP10, entry RRIRNRPPRLPRPRPRPDVRPRP . Fill in?
Response line: -0.104

Prompt line: Missing value: shrunken log2 fold change, Escherichia coli TOP10, entry RRIRQRPPRLPRPRPRPYPNPRP . Fill in?
Response line: -0.0164

Prompt line: Missing value: shrunken log2 fold change, Escherichia coli TOP10, entry RRIRERPPRLPRPRPRPMTTPRP . Fill in?
Response line: -0.023

Prompt line: Missing value: shrunken log2 fold change, Escherichia coli TOP10, entry RRIRIRPPRLPRPRPRPQDFPRP . Fill in?
Response line: -0.1

Prompt line: Missing value: shrunken log2 fold change, Escherichia coli TOP10, entry RRIRYRPPRLPRPRPRPVGLPRP . Fill in?
Response line: 0.158

Prompt line: Missing value: shrunken log2 fold change, Escherichia coli TOP10, entry RRIRIRPPRLPRPRPRPICGPRP . Fill in?
Response line: -0.161

Prompt line: Missing value: shrunken log2 fold change, Escherichia coli TOP10, entry RRIRCRPPRLPRPRPRPNGQPRP . Fill in?
Response line: -0.0579

Prompt line: Missing value: shrunken log2 fold change, Escherichia coli TOP10, entry RRIRYRPPRLPRPRPRPHQKPRP . Fill in?
Response line: -0.248

Prompt line: Missing value: shrunken log2 fold change, Escherichia coli TOP10, entry RRIRFRPPRLPRPRPRPALGPRP . Fill in?
Response line: 0.423

Prompt line: Missing value: shrunken log2 fold change, Escherichia coli TOP10, entry RRIRHRPPRLPRPRPRPYVAPRP . Fill in?
Response line: -0.912

Prompt line: Missing value: shrunken log2 fold change, Escherichia coli TOP10, entry RRIRARPPRLPRPRPRPWYGPRP . Fill in?
Response line: -0.634

Prompt line: Missing value: shrunken log2 fold change, Escherichia coli TOP10, entry RRIRGRPPRLPRPRPRPVCCPRP . Fill in?
Response line: 0.957

Prompt line: Missing value: shrunken log2 fold change, Escherichia coli TOP10, entry RRIRIRPPRLPRPRPRPCAWPRP . Fill in?
Response line: -0.0154

Prompt line: Missing value: shrunken log2 fold change, Escherichia coli TOP10, entry RRIRARPPRLPRPRPRPFLYPRP . Fill in?
Response line: -0.0961

Prompt line: Missing value: shrunken log2 fold change, Escherichia coli TOP10, entry RRIRGRPPRLPRPRPRPDFRPRP . Fill in?
Response line: -0.043

Prompt line: Missing value: shrunken log2 fold change, Escherichia coli TOP10, entry RRIRFRPPRLPRPRPRPRACPRP . Fill in?
Response line: 0.165

Prompt line: Missing value: shrunken log2 fold change, Escherichia coli TOP10, entry RRIRGRPPRLPRPRPRPKECPRP . Fill in?
Response line: 0.0235

Prompt line: Missing value: shrunken log2 fold change, Escherichia coli TOP10, entry RRIRRRPPRLPRPRPRPWKLPRP . Fill in?
Response line: -0.0807

Prompt line: Missing value: shrunken log2 fold change, Escherichia coli TOP10, entry RRIRYRPPRLPRPRPRPLTGPRP . Fill in?
Response line: -0.023

Prompt line: Missing value: shrunken log2 fold change, Escherichia coli TOP10, entry RRIRKRPPRLPRPRPRPQDCPRP . Fill in?
Response line: -0.104

Prompt line: Missing value: shrunken log2 fold change, Escherichia coli TOP10, entry RRIRCRPPRLPRPRPRPWGGPRP . Fill in?
Response line: 0.36

Prompt line: Missing value: shrunken log2 fold change, Escherichia coli TOP10, entry RRIRPRPPRLPRPRPRPFQTPRP . Fill in?
Response line: -0.242

Prompt line: Missing value: shrunken log2 fold change, Escherichia coli TOP10, entry RRIRSRPPRLPRPRPRPRMPPRP . Fill in?
Response line: 0.0543

Prompt line: Missing value: shrunken log2 fold change, Escherichia coli TOP10, entry RRIRARPPRLPRPRPRPCHIPRP . Fill in?
Response line: 0.00153

Prompt line: Missing value: shrunken log2 fold change, Escherichia coli TOP10, entry RRIRPRPPRLPRPRPRPRYHPRP . Fill in?
Response line: -0.224

Prompt line: Missing value: shrunken log2 fold change, Escherichia coli TOP10, entry RRIRKRPPRLPRPRPRPYHFPRP . Fill in?
Response line: -0.031

Prompt line: Missing value: shrunken log2 fold change, Escherichia coli TOP10, entry RRIRWRPPRLPRPRPRPPQEPRP . Fill in?
Response line: 0.567

Prompt line: Missing value: shrunken log2 fold change, Escherichia coli TOP10, entry RRIRQRPPRLPRPRPRPGEFPRP . Fill in?
Response line: 0.313

Prompt line: Missing value: shrunken log2 fold change, Escherichia coli TOP10, entry RRIRHRPPRLPRPRPRPLEVPRP . Fill in?
Response line: -0.184
